# Lookup of reported pIC50 keyed by entry
SYSTEM: recombinant human TDP2 (Homo sapiens)
ASSAY_PROCEDURE: Recombinant Tdp2 assay (gel-based, 18-mer ssDNA substrate)
EXPERIMENTAL_CONDITIONS: recombinant human TDP2, 25 pM, 15 min, room temperature; read-out: REC TDP2
pIC50: −log10 of the molar value.

The following compounds have reported results that may help.
COC(=O)c1c(C)oc2c1C(=O)c1ncccc1C2=O : 4.43 to 4.92
C=CC(=O)Nc1ccc(OC(=O)c2c(C)oc3c2C(=O)c2ncccc2C3=O)cc1 : 4.43 to 4.92
Cc1oc2c(c1C(=O)Oc1cccc(-c3cn(CCC(=O)O)nn3)c1)C(=O)c1ncccc1C2=O : 4.43 to 4.92

From here, focus on the item given below.
For the compound shown here, "CC(C)(C)OC(=O)Nc1ccc(OC(=O)c2coc3c2C(=O)c2ncccc2C3=O)cc1" , give the reported pIC50.
4.43 to 4.92

====

SYSTEM: human TDP2 (hTDP2) (Homo sapiens, UniProt O95551)
Construct: whole cell extract
Sequence (O95551 whole entry): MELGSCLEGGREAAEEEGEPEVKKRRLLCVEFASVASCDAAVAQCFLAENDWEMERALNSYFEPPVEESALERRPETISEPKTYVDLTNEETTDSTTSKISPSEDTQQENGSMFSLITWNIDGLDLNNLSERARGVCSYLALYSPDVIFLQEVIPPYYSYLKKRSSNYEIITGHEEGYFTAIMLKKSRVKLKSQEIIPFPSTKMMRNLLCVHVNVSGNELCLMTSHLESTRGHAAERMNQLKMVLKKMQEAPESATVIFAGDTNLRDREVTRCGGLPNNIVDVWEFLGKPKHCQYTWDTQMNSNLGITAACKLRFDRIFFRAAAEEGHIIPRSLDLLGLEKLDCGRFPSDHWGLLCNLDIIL
ASSAY_PROCEDURE: Whole cell extract Tdp2 assay (DT40 TDP1-/- cells complemented with human TDP2)
EXPERIMENTAL_CONDITIONS: whole cell extract 4 μg/mL of DT40 cells expressing hTDP2, 15 min, room temperature; read-out: WCE hTDP2
pIC50: −log10 of the molar value.
RECORDED_METRIC: pIC50

Consider the reported pIC50 for these molecules:
Cc1oc2c(c1C(=O)O)C(=O)c1ncccc1C2=O : 3.95 to 4.43
CCOC(=O)c1c(-c2ccccc2)oc2c1C(=O)c1cccnc1C2=O : 4.43 to 4.92
CCOC(=O)c1c(-c2ccccc2)oc2c1C(=O)c1ncccc1C2=O : 4.43 to 4.92
O=C(Oc1ccc(OCCCN2CCOCC2)cc1)c1coc2c1C(=O)c1ncccc1C2=O : 4.92 to 6.00

Fill in: pIC50 of "Cc1oc2c(c1C(=O)Oc1ccc(Cl)cc1)C(=O)c1ncccc1C2=O" is ___
4.92 to 6.00

Could you do the same for "Cc1oc2c(c1C(=O)OC[C@H]1COC(C)(C)O1)C(=O)c1ncccc1C2=O" , please?
4.92 to 6.00

What about "Cc1oc2c(c1C(=O)OCCCO)C(=O)c1ncccc1C2=O" ?
4.92 to 6.00

Consider next the molecule "Cc1oc2c(c1C(=O)Oc1ccccc1Cl)C(=O)c1ncccc1C2=O" in the same way.
4.43 to 4.92

Then what about the molecule "CCOC(=O)c1c(C)oc2c1C(=O)c1cccnc1C2=O" ?
3.95 to 4.43

====

SYSTEM: recombinant human TDP2 (Homo sapiens)
ASSAY_PROCEDURE: Recombinant Tdp2 assay (gel-based, 18-mer ssDNA substrate)
EXPERIMENTAL_CONDITIONS: recombinant human TDP2, 25 pM, 15 min, room temperature; read-out: REC TDP2
Measured IC50 of individual entries

Use the examples below as a reference point.
COP(=O)(CCOC(=O)c1c(C)oc2c1C(=O)c1ncccc1C2=O)OC [Compound 22] : 1 to 12 µM
Cc1oc2c(c1C(=O)OCCc1cn(CCC(=O)O)nn1)C(=O)c1ncccc1C2=O [Compound 42] : 12 to 37 µM
CCOC(=O)c1c(-c2ccccc2)oc2c1C(=O)c1ncccc1C2=O [Compound 30] : 12 to 37 µM
CCOC(=O)c1noc2c1C(=O)c1ncccc1C2=O [Compound 73] : ≤ 1 µM

Now consider a different compound.
So what's the measured IC50 for this one? CCOC(=O)c1c(C(C)C)oc2c1C(=O)c1ncccc1C2=O [Compound 64]
12 to 37 µM

====

SYSTEM: human TDP2 (hTDP2) (Homo sapiens)
Construct: whole cell extract
ASSAY_PROCEDURE: Whole cell extract Tdp2 assay (DT40 TDP1-/- cells complemented with human TDP2)
EXPERIMENTAL_CONDITIONS: whole cell extract 4 μg/mL of DT40 cells expressing hTDP2, 15 min, room temperature; read-out: WCE hTDP2
RECORDED_METRIC: IC50

Illustrative cases are given below, each with its answer.
CCOC(=O)c1c(CBr)oc2c1C(=O)c1ncccc1C2=O [Compound 63] : 1 to 12 µM
Cc1oc2c(c1C(=O)Oc1ccc(S(C)(=O)=O)cc1)C(=O)c1ncccc1C2=O [Compound 44] : 12 to 37 µM
Cc1oc2c(c1C(=O)OCCO)C(=O)c1ncccc1C2=O [Compound 10] : 1 to 12 µM
Cc1oc2c(c1C(=O)OC[C@@H](O)CO)C(=O)c1ncccc1C2=O [Compound 37] : 12 to 37 µM
Cc1oc2c(c1C(=O)Oc1cccc(-c3cn(CCC(=O)O)nn3)c1)C(=O)c1ncccc1C2=O [Compound 33] : 12 to 37 µM

Any idea what IC50 was measured for Cc1oc2c(c1C(=O)Oc1cccc(Cl)c1)C(=O)c1ncccc1C2=O [Compound 23] ?
1 to 12 µM

Likewise for COC(=O)c1c(C)oc2c1C(=O)c1ncccc1C2=O [Compound 41] ?
1 to 12 µM

Okay, and CC(=O)c1c(C)oc2c1C(=O)c1ncccc1C2=O [Compound 9] ?
37 to 111 µM

Here is the next molecule: COP(=O)(CCOC(=O)c1c(C)oc2c1C(=O)c1ncccc1C2=O)OC [Compound 22]
12 to 37 µM

Now try CCOC(=O)c1c(C)oc2c1C(=O)c1ncccc1C2=O [Compound 2] .
12 to 37 µM

====

SYSTEM: recombinant human TDP2 (Homo sapiens)
ASSAY_PROCEDURE: Recombinant Tdp2 assay (gel-based, 18-mer ssDNA substrate)
EXPERIMENTAL_CONDITIONS: recombinant human TDP2, 25 pM, 15 min, room temperature; read-out: REC TDP2
Method: TDP2 reactions were carried out as described previously (Example 52) with the following modifications. […] All compounds were prepared by the methods shown in Examples 1 to 50. Routine changes in starting materials and reaction conditions, readily apparent to those of skill in the art, were used to make the particular compounds disclosed in Table 1. […]
RECORDED_METRIC: IC50

Recorded IC50, per entry:
Cc1oc2c(c1C(=O)OCCOCCO)C(=O)c1ncccc1C2=O [Compound 36] : 12 to 37 µM
CCNC(=O)c1c(C)oc2c1C(=O)c1ncccc1C2=O [Compound 20] : > 111 µM
Cc1oc2c(c1C(=O)Oc1ccc(S(C)(=O)=O)cc1)C(=O)c1ncccc1C2=O [Compound 44] : 12 to 37 µM
Cc1oc2c(c1C(=O)Nc1ccccc1)C(=O)c1ncccc1C2=O [Compound 16] : > 111 µM
Cc1oc2c(c1C(=O)Oc1cccc(O)c1)C(=O)c1ncccc1C2=O [Compound 12] : 12 to 37 µM

Write down the reported IC50 of O=C(Oc1ccc(OCCCN2CCOCC2)cc1)c1coc2c1C(=O)c1ncccc1C2=O [Compound 59] , test system: recombinant human TDP2 (Homo sapiens).
37 to 111 µM

Check Cc1oc2c(c1C(=O)OCC(O)CO)C(=O)c1ncccc1C2=O (stereo not shown) [Compound 15] too.
12 to 37 µM

What about this molecule? CCOC(=O)c1c(C)oc2c1C(=O)c1cccnc1C2=O [Compound 1]
37 to 111 µM

Another molecule to look at: Cc1oc2c(c1C(=O)Oc1cccc(-c3cn(CCCO)nn3)c1)C(=O)c1ncccc1C2=O [Compound 34]
1 to 12 µM

Cool, now CCOC(=O)c1c(-c2ccccc2)oc2c1C(=O)c1cccnc1C2=O [Compound 29]
37 to 111 µM

====

SYSTEM: human TDP2 (hTDP2) (Homo sapiens, UniProt O95551)
Construct: expressed in transfected cells; host or cells: DT40 (chicken) TDP1-/- knockout cells complemented with human TDP2; whole cell extract
ASSAY_PROCEDURE: Whole cell extract Tdp2 assay (DT40 TDP1-/- cells complemented with human TDP2)
Assay type: biochemical
EXPERIMENTAL_CONDITIONS: whole cell extract 4 μg/mL of DT40 cells expressing hTDP2, 15 min, room temperature; read-out: WCE hTDP2
pIC50: −log10 of the molar value.
pIC50 overview

Known results for compounds:
Cc1oc2c(c1C(=O)OCCc1ccccc1)C(=O)c1ncccc1C2=O [Compound 40] : 4.43 to 4.92
Cc1oc2c(c1C(=O)Oc1cccc(-c3cn(CCCO)nn3)c1)C(=O)c1ncccc1C2=O [Compound 34] : 4.92 to 6.00
Cc1oc2c(c1C(=O)Oc1cccnc1)C(=O)c1ncccc1C2=O [Compound 28] : 4.92 to 6.00
Cc1oc2c(c1C(=O)Oc1ccc(Br)cc1)C(=O)c1ncccc1C2=O [Compound 31] : 4.43 to 4.92
Cc1oc2c(c1C(=O)Oc1ccccc1OCCCN1CCOCC1)C(=O)c1ncccc1C2=O [Compound 60] : 4.92 to 6.00
C#Cc1cccc(OC(=O)c2c(C)oc3c2C(=O)c2ncccc2C3=O)c1 [Compound 32] : 4.43 to 4.92
Cc1oc2c(c1C(=O)OCCc1cn(CCC(=O)O)nn1)C(=O)c1ncccc1C2=O [Compound 42] : 4.43 to 4.92
Cc1oc2c(c1C(=O)Oc1cccc(O)c1)C(=O)c1ncccc1C2=O [Compound 12] : 4.92 to 6.00
Cc1oc2c(c1C(=O)Oc1cccc(C#N)c1)C(=O)c1ncccc1C2=O [Compound 26] : 4.92 to 6.00
C#CCCOC(=O)c1c(C)oc2c1C(=O)c1ncccc1C2=O [Compound 43] : 4.43 to 4.92

Entry under review: Cc1oc2c(c1C(=O)OCC(O)CO)C(=O)c1ncccc1C2=O (stereo not drawn) [Compound 15] . Reported pIC50?
4.92 to 6.00

Proceed to Cc1oc2c(c1C(=O)OCCCCO)C(=O)c1ncccc1C2=O [Compound 35]
4.92 to 6.00

What do we get for Cc1oc2c(c1C(=O)OCCOCCO)C(=O)c1ncccc1C2=O [Compound 36] ?
4.43 to 4.92
